Collected pKi for Carbonic anhydrase 4 (Bos taurus) across several studies; molecules listed below.
The read-out pKi is expressed as -log10 of concentration in moles per litre.

Input line: Fill blank: measured pKi of the molecule `O=S(=O)(NO)c1ccc(F)cc1` is ____.
Output line: 7.05

Input line: Fill blank: measured pKi of the molecule `O=S(=O)(NO)C(F)(F)F` is ____.
Output line: 7.80

Input line: Fill blank: measured pKi of the molecule `NS(=O)(=O)c1nc2ccc(NC(=O)CN(CCOCCOCCN(CC(=O)O)CC(=O)Nc3ccc4nc(S(N)(=O)=O)sc4c3)CC(=O)O)cc2s1` is ____.
Output line: 8.40

Input line: Fill blank: measured pKi of the molecule `CCCCCC(=O)Nc1ccc(S(N)(=O)=O)cc1` is ____.
Output line: 6.01

Input line: Fill blank: measured pKi of the molecule `Cc1cc(C)[n+](CC(=O)Oc2ccc3nc(S(N)(=O)=O)sc3c2)c(C)c1` is ____.
Output line: 7.54

Input line: Fill blank: measured pKi of the molecule `NS(=O)(=O)c1cc(S(N)(=O)=O)c(NC(=O)CNCC(=O)O)c(Cl)c1Cl` is ____.
Output line: 6.97

Input line: Fill blank: measured pKi of the molecule `NCCCC(=O)Nc1ccc(S(=O)(=O)Nc2ccc(S(N)(=O)=O)cc2)cc1` is ____.
Output line: 7.12

Input line: Fill blank: measured pKi of the molecule COc1ccc(S(=O)(=O)NC(C(=O)NO)C(C)C)cc1 (stereo not drawn) is ____.
Output line: 7.42

Input line: Fill blank: measured pKi of the molecule `NS(=O)(=O)c1ccc(NC(=O)CN(CCOCCOCCN(CC(=O)O)CC(=O)Nc2ccc(S(N)(=O)=O)cc2Cl)CC(=O)O)c(Cl)c1` is ____.
Output line: 7.66

Input line: Fill blank: measured pKi of the molecule `NS(=O)(=O)c1ccc(NS(=O)(=O)c2c(F)c(F)c(F)c(F)c2F)c(Br)c1` is ____.
Output line: 6.26

Input line: Fill blank: measured pKi of the molecule `CN(CC(=O)Nc1c(S(N)(=O)=O)cc(S(N)(=O)=O)c(Cl)c1Cl)C(=N)N` is ____.
Output line: 7.29

Input line: Fill blank: measured pKi of the molecule `CC(C)c1cc(-c2ccccc2)cc(C(C)C)[n+]1CC(=O)Nc1c(S(N)(=O)=O)cc(S(N)(=O)=O)c(Cl)c1Cl` is ____.
Output line: 7.31

Input line: Fill blank: measured pKi of the molecule `NS(=O)(=O)c1nnc(NS(=O)(=O)c2ccc(NS(=O)(=O)c3c(F)c(F)c(F)c(F)c3F)cc2)s1` is ____.
Output line: 8.10

Input line: Fill blank: measured pKi of the molecule `NS(=O)(=O)c1ccccc1NS(=O)(=O)c1c(F)c(F)c(F)c(F)c1F` is ____.
Output line: 6.17

Input line: Fill blank: measured pKi of the molecule `CCc1cc(-c2ccccc2)cc(CC)[n+]1CC(=O)Nc1ccc2nc(S(N)(=O)=O)sc2c1` is ____.
Output line: 7.52

Input line: Fill blank: measured pKi of the molecule `NS(=O)(=O)c1ccc(NC(=O)CN(CCN(CC(=O)O)c2ccccc2O)c2ccccc2O)c(Br)c1` is ____.
Output line: 7.25

Input line: Fill blank: measured pKi of the molecule `NS(=O)(=O)c1ccc(NC(=O)C(F)(F)C(F)(F)C(F)(F)C(F)(F)C(F)(F)C(F)(F)C(F)(F)C(F)(F)F)c(Br)c1` is ____.
Output line: 6.21

Input line: Fill blank: measured pKi of the molecule `Cn1nc(S(N)(=O)=O)s/c1=N/S(=O)(=O)c1ccc(NS(=O)(=O)C(F)(F)F)cc1` is ____.
Output line: 7.48
